Molecular target: Dorea PTS_EIIBCA (I9 PTS_EIIBCA) (uncultured bacterium)
endpoint_name: Kd (µM)
Express the result in µM but write the number alone.

Return reported Kd; argument: OC[C@H]1O[C@@](CO)(OC[C@@]2(O[C@H]3O[C@H](CO)[C@@H](O)[C@H](O)[C@H]3O)O[C@H](CO)[C@@H](O)[C@@H]2O)[C@@H](O)[C@@H]1O [kestose]
51
